# TESTED TARGET: hGLP1R (Homo sapiens, UniProt P43220)
# Construct: expressed in transfected cells; host or cells: HEK-293 cells carrying a CRE-luciferase reporter gene
# Sequence (P43220 24-463): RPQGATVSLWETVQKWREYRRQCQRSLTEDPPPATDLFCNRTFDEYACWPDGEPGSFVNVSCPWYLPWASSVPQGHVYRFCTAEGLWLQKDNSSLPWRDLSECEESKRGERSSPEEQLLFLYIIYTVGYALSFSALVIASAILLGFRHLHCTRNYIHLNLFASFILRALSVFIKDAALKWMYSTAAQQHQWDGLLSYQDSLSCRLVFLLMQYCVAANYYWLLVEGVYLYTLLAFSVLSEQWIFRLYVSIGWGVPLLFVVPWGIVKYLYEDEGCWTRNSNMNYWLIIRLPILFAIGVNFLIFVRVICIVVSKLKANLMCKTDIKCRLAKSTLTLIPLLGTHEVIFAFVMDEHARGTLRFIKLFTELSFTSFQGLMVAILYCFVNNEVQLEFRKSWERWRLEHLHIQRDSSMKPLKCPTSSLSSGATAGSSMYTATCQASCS
# PROTOCOL DESCRIPTION: hGLP1R CreLuc reporter gene assay in 0.5% and 100% plasma
# Assay type: cell-based
# EXPERIMENTAL PARAMETERS: CreLuc reporter gene assay, 0.5% human plasma; read-out: hGLP1R 0.5% hP
# Experimental: Example 1: hGLPR/hGIPR/hNPY2R CreLuc Assay in 0.5% and 100% Plasma CHO and HEK-293 recombinant cell lines express a luciferase reporter gene under control of the cAMP responsive element (CRE). […] Following incubation, assay plates are equilibrated to room temperature, followed by addition of 25 μl of Bright-GIo™ Luciferase reagent, incubation at room temperature for 10 minutes and analysis of luminescence (Envision Reader). […]
Starred links: 1 amine or outer side, 2 acyl side, 3 side chain; linkers in the order of their positions; H or OH if unused. Non-standard residues stand in square brackets, D forms with d. Groups on a side chain read outwards from the residue. No end group written: not given here. *: point of attachment. C20 diacid = O=C(O)CCCCCCCCCCCCCCCCCCC(=O)*; C18 diacid = O=C(O)CCCCCCCCCCCCCCCCC(=O)*; γGlu = O=C(O)[C@H](CCC(=O)[*:2])N[*:1]; εLys = N[C@@H](CCCCN[*:1])C(=O)[*:2]; AEEA = NCCOCCOCC(=O)O; Aib = CC(C)(N)C(=O)O
Please respond with reported pEC50 for every item in the list.
Give bare numbers, as −log10 of the molar value.

Before answering, review these 9 worked examples.
SUBSTANCE	pEC50
H-Y[Aib]EGTFTSDYSI[Aib]LEKQAQ[Aib]AFVEWLIK([εLys-γGlu-γGlu-γGlu-γGlu-γGlu-γGlu-C20 diacid])GGPSSGAS[Aib]RHYYNWLTRQRY-NH2 [Compound 118]	10.30
H-Y[Aib]EGTFTSDYSI[Aib]LEKQAQ[Aib]EFVEWLIK([AEEA-γGlu-γGlu-γGlu-C18 diacid])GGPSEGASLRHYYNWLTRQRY-NH2 [Compound 274]	9.39
Y[Aib]EGTFTSDYSI[Aib]LEKQAQ[Aib]AFIEWLIK([AEEA-AEEA-γGlu-γGlu-γGlu-γGlu-C18 diacid])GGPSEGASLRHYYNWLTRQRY-NH2 [Compound 258]	9.77
H-Y[Aib]EGTFTSDYSI[Aib]LEKQAQ[Aib]EFVQWLIK([γGlu-γGlu-γGlu-γGlu-γGlu-γGlu-C20 diacid])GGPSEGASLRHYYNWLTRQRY-NH2 [Compound 185]	9.40
Y[Aib]EGTFTSDYSI[Aib]LEKQAQ[Aib]AFVQWLIK([εLys-γGlu-γGlu-γGlu-γGlu-γGlu-γGlu-γGlu-C20 diacid])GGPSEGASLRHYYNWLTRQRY-NH2 [Compound 224]	9.89
H-Y[Aib]EGTFTSDYSI[Aib]LEKQAQ[Aib]AFVQWLIK([AEEA-AEEA-γGlu-γGlu-γGlu-γGlu-γGlu-C18 diacid])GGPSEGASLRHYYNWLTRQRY-NH2 [Compound 246]	9.96
H-Y[Aib]EGTFTSDYSI[Aib]LEKQAQ[Aib]AFVQWLIK([AEEA-AEEA-γGlu-γGlu-γGlu-γGlu-C18 diacid])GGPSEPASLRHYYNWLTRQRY-NH2 [Compound 173]	9.96
H-Y[Aib]EGTFTSDYSI[Aib]LE[Aib]EAQ[Aib]KFVEWLIK([εLys-γGlu-γGlu-γGlu-γGlu-γGlu-γGlu-C20 diacid])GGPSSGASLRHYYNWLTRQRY-NH2 [Compound 16]	8.83
H-Y[Aib]EGTFTSDYSI[Aib]LEKQAQ[dD]AFVEWLIK([εLys-γGlu-γGlu-γGlu-γGlu-γGlu-γGlu-C20 diacid])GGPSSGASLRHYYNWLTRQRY-NH2 [Compound 211]	9.13

Please turn your attention to the following entry.
Query :: Please give measured pEC50 of the following entry: H-Y[Aib]EGTFTSDYSI[Aib]LEKQAQ[Aib]EFVQWLIK([γGlu-γGlu-γGlu-γGlu-γGlu-γGlu-C18 diacid])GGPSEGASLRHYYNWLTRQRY-NH2 [Compound 151]
Result :: 9.59
